TARGET_OF_ASSAY: Nuclear factor NF-kappa-B complex (Homo sapiens) (UniProt Q00653+P19838+Q04206)
Sequence (P19838 whole entry, looked up): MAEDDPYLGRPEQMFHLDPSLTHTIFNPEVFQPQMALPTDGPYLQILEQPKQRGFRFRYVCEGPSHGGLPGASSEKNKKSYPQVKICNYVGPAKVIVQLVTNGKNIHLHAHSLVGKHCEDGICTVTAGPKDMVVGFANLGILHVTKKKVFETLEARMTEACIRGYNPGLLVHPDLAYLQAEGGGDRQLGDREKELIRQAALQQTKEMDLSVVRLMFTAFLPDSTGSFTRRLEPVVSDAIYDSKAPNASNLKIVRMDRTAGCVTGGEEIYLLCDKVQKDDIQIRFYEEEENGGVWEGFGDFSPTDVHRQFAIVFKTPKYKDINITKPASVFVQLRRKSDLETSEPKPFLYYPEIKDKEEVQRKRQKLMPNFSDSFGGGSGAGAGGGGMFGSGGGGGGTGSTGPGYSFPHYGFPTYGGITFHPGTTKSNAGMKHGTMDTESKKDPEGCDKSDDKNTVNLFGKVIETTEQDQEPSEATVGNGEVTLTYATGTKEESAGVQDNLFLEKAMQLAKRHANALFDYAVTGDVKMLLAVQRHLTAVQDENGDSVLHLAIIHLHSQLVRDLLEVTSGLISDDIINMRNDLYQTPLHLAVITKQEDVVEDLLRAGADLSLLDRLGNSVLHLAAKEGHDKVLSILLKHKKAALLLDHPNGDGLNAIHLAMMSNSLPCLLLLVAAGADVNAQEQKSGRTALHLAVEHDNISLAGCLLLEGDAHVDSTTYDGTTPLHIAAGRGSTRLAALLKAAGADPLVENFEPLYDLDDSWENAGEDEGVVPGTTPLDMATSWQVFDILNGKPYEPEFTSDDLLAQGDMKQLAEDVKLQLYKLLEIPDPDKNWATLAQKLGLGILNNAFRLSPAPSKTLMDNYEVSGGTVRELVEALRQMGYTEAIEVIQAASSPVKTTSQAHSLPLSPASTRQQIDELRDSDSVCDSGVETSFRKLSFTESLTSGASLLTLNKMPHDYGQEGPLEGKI
Sequence (Q00653 whole entry, looked up): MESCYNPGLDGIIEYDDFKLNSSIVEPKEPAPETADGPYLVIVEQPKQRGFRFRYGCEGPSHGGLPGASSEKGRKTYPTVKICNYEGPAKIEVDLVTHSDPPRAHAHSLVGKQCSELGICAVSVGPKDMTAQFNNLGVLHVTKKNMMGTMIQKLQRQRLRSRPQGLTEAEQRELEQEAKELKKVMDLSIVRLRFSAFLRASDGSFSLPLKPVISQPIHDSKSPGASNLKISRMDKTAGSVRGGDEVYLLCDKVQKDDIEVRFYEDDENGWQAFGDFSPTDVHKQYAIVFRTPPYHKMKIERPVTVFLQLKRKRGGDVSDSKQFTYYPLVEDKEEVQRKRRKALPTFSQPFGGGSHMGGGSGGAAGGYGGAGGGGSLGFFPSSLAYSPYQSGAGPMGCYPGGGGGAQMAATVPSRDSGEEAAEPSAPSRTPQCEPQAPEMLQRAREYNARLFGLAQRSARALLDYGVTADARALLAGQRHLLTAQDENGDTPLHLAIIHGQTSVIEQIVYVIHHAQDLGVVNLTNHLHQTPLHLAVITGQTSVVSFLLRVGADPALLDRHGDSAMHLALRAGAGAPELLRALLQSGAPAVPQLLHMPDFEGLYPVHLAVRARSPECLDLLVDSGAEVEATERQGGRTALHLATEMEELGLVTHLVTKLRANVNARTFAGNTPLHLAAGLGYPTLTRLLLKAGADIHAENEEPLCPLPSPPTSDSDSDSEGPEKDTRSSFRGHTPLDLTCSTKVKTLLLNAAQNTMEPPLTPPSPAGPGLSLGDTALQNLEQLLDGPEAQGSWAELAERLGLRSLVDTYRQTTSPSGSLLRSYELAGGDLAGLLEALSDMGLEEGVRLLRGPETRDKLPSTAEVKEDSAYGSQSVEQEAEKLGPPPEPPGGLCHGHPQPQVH
Sequence (Q04206 whole entry, looked up): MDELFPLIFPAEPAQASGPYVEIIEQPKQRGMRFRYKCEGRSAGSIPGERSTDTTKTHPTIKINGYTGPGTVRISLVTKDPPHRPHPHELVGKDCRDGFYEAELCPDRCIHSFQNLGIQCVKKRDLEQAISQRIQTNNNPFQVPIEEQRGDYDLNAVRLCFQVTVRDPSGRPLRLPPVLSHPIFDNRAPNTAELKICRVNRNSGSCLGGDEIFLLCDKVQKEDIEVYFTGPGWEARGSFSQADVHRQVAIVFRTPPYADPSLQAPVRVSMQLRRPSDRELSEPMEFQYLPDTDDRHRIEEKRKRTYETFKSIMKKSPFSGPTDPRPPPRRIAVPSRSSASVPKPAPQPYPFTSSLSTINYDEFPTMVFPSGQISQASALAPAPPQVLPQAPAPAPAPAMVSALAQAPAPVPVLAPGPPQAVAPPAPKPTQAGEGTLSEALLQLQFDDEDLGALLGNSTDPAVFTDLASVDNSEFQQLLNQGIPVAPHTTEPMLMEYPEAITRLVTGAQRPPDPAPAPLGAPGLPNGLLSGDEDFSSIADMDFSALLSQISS
MEASUREMENT_PROTOCOL: Inhibition of NFkappaB (unknown origin) expressed in LPS-stimulated HEK293-NF-kappaB-luc cells assessed as luminescence signals measured by relative light units at 100 ug/mL pre-treated for 4 hrs before LPS challenge for 24 hrs by luciferase assay
Type: cell-based
Activity calls are given as the source filed them. The rule behind the calls is not given here.
REPORTED_METRIC: Activity

INSERT INTO results (compound, target_of_assay, reported_metric, test_value) VALUES
  ('CC1(C)CC[C@]2(C(=O)O[C@@H]3O[C@H](CO)[C@@H](O)[C@H](O)[C@H]3O)[C@@H](O)C[C@]3(C)C(=CC[C@@H]4[C@@]5(C)CC[C@H](O[C@@H]6O[C@H](CO)[C@@H](O)[C@H](O)[C@H]6O)C(C)(C)[C@@H]5CC[C@]43C)[C@@H]2C1', 'Nuclear factor NF-kappa-B complex (Homo sapiens) (UniProt Q00653+P19838+Q04206)', 'Activity', 'inactive'),
  ('CC1(C)[C@@H](O[C@@H]2O[C@H](CO)[C@@H](O)[C@H](O)[C@H]2O)CC[C@]2(C)[C@H]3CC=C4[C@@H]5C[C@](C)(CO)CC[C@]5(C)[C@@H](O)C[C@@]4(C)[C@]3(C)CC[C@@H]12', 'Nuclear factor NF-kappa-B complex (Homo sapiens) (UniProt Q00653+P19838+Q04206)', 'Activity', 'inactive'),
  ('CC(C)[C@H]1C[C@H]2O[C@@]2(C)[C@@H](O)[C@H]1O[C@@H]1O[C@H](CO)[C@@H](O)[C@H](O)[C@H]1O (relative stereo)', 'Nuclear factor NF-kappa-B complex (Homo sapiens) (UniProt Q00653+P19838+Q04206)', 'Activity', 'inactive'),
  ('C[C@H]1[C@H]2[C@H]3CC[C@@H]4[C@@]5(C)CC[C@H](O[C@@H]6O[C@H](CO)[C@@H](O)[C@H](O)[C@H]6O)C(C)(C)[C@@H]5CC[C@@]4(C)[C@]3(C)C[C@H](O)[C@@]2(C)CC[C@]1(C)O', 'Nuclear factor NF-kappa-B complex (Homo sapiens) (UniProt Q00653+P19838+Q04206)', 'Activity', 'inactive');

---

TARGET_OF_ASSAY: Nuclear factor NF-kappa-B complex (Homo sapiens) (UniProt Q00653+P19838+Q04206)
MEASUREMENT_PROTOCOL: Inhibition of NFkappaB (unknown origin) expressed in LPS-stimulated HEK293-NF-kappaB-luc cells assessed as luminescence signals measured by relative light units at 500 ug/mL pre-treated for 4 hrs before LPS challenge for 24 hrs by luciferase assay
Type: cell-based
REPORTED_METRIC: RLU

Some solved cases for reference:
INSERT INTO results (compound, reported_metric, test_value) VALUES
  ('CC1(C)C=C2[C@H]3CC[C@@H]4[C@@]5(C)CC[C@H](O[C@@H]6O[C@H](CO)[C@@H](O)[C@H](O)[C@H]6O[C@@H]6O[C@H](CO)[C@@H](O)[C@H](O)[C@H]6O)C(C)(C)[C@@H]5CC[C@@]4(C)[C@]3(C)CC[C@@]2(C(=O)O[C@@H]2O[C@H](CO)[C@@H](O)[C@H](O)[C@H]2O)CC1', 'RLU', 0.72),
  ('C=CC(C)(O)CC/C=C(\C)CC/C=C(\C)CO[C@@H]1O[C@H](CO)[C@@H](O)[C@H](O)[C@H]1O (some centres not stated)', 'RLU', 0.47);

I. C[C@H]1[C@H]2[C@H]3CC[C@@H]4[C@@]5(C)CC[C@H](O[C@@H]6O[C@H](CO)[C@@H](O)[C@H](O)[C@H]6O)C(C)(C)[C@@H]5CC[C@@]4(C)[C@]3(C)CC[C@@]2(CO)CC[C@]1(C)O
II. CC1(C)CC[C@]2(C(=O)O[C@@H]3O[C@H](CO)[C@@H](O)[C@H](O)[C@H]3O)[C@H](O)C[C@]3(C)C(=CC[C@@H]4[C@@]5(C)CC[C@H](O[C@@H]6O[C@H](CO)[C@@H](O)[C@H](O)[C@H]6OS(=O)(=O)O)C(C)(C)[C@@H]5CC[C@]43C)[C@@H]2C1
Please tell me which of the two, I or II , has the higher reported RLU value. Bench note: the answer is the label of the chosen record.
I
(I: 0.5, II: 0.07)

---

TARGET_OF_ASSAY: Nuclear factor NF-kappa-B complex (Homo sapiens) (UniProt Q00653+P19838+Q04206)
MEASUREMENT_PROTOCOL: Inhibition of NFkappaB (unknown origin) expressed in LPS-stimulated HEK293-NF-kappaB-luc cells assessed as luminescence signals measured by relative light units at 10 ug/mL pre-treated for 4 hrs before LPS challenge for 24 hrs by luciferase assay
Type: cell-based
REPORTED_METRIC: RLU

INSERT INTO results (compound, reported_metric, test_value) VALUES
  ('CC1(C)CC[C@]2(C(=O)O[C@@H]3O[C@H](CO)[C@@H](O)[C@H](O)[C@H]3O)[C@H](O)C[C@]3(C)C(=CC[C@@H]4[C@@]5(C)CC[C@H](O[C@@H]6O[C@H](CO)[C@@H](O)[C@H](O)[C@H]6O)C(C)(C)[C@@H]5CC[C@]43C)[C@@H]2C1', 'RLU', 0.22);

P. C[C@H]1[C@H]2[C@H]3CC[C@@H]4[C@@]5(C)CC[C@H](O[C@@H]6O[C@H](CO)[C@@H](O)[C@H](O)[C@H]6O)C(C)(C)[C@@H]5CC[C@@]4(C)[C@]3(C)CC[C@@]2(CO)CC[C@]1(C)O
Q. CC1(C)CC[C@]2(C(=O)O[C@@H]3O[C@H](CO)[C@@H](O)[C@H](O)[C@H]3O)[C@H](O)C[C@]3(C)C(=CC[C@@H]4[C@@]5(C)CC[C@H](O[C@@H]6O[C@H](CO)[C@@H](O)[C@H](O)[C@H]6OS(=O)(=O)O)C(C)(C)[C@@H]5CC[C@]43C)[C@@H]2C1
Between item P and item Q , which reported RLU is smaller? Answer format: the label of the selected item.
Q

1. C[C@]12CCC(=O)C=C1CC[C@@H]1[C@@H]2[C@@H](O)C[C@@]2(C)[C@H]1CC[C@]2(O)C(=O)CO
2. C=CC(C)(O)CC/C=C(\C)CC/C=C(\C)CO[C@@H]1O[C@H](CO)[C@@H](O)[C@H](O)[C@H]1O (some centres not stated)
Just curious, which one has the larger RLU reading, 1 or 2 ? Record your answer as the label of the chosen record.
1

---

TARGET_OF_ASSAY: Nuclear factor NF-kappa-B complex (Homo sapiens) (UniProt Q00653+P19838+Q04206)
MEASUREMENT_PROTOCOL: Inhibition of NFkappaB (unknown origin) expressed in LPS-stimulated HEK293-NF-kappaB-luc cells assessed as luminescence signals measured by relative light units at 100 ug/mL pre-treated for 4 hrs before LPS challenge for 24 hrs by luciferase assay
Assay type: cell-based
REPORTED_METRIC: RLU

INSERT INTO results (compound, reported_metric, test_value) VALUES
  ('CC1(C)CC[C@]2(C(=O)O[C@@H]3O[C@H](CO)[C@@H](O)[C@H](O)[C@H]3O)[C@H](O)C[C@]3(C)C(=CC[C@@H]4[C@@]5(C)CC[C@H](O[C@@H]6O[C@H](CO)[C@@H](O)[C@H](O)[C@H]6O)C(C)(C)[C@@H]5CC[C@]43C)[C@@H]2C1', 'RLU', 0.33),
  ('CC1(C)CC[C@]2(C(=O)O[C@@H]3O[C@H](CO)[C@@H](O)[C@H](O)[C@H]3O)CC[C@]3(C)C(=CC[C@@H]4[C@@]5(C)CC[C@H](O[C@@H]6O[C@H](CO)[C@@H](O)[C@H](O)[C@H]6O[C@@H]6O[C@H](CO)[C@@H](O)[C@H](O)[C@H]6O)C(C)(C)[C@@H]5CC[C@]43C)[C@@H]2C1', 'RLU', 0.47),
  ('CC1(C)CC[C@]2(C(=O)O[C@@H]3O[C@H](CO)[C@@H](O)[C@H](O)[C@H]3O)[C@H](O)C[C@]3(C)C(=CC[C@@H]4[C@@]5(C)CC[C@H](O[C@@H]6O[C@H](CO)[C@@H](O)[C@H](O)[C@H]6OS(=O)(=O)O)C(C)(C)[C@@H]5CC[C@]43C)[C@@H]2C1', 'RLU', 0.23),
  ('CC1(C)C=C2[C@H]3CC[C@@H]4[C@@]5(C)CC[C@H](O[C@@H]6O[C@H](CO)[C@@H](O)[C@H](O)[C@H]6O[C@@H]6O[C@H](CO)[C@@H](O)[C@H](O)[C@H]6O)C(C)(C)[C@@H]5CC[C@@]4(C)[C@]3(C)CC[C@@]2(C(=O)O[C@@H]2O[C@H](CO)[C@@H](O)[C@H](O)[C@H]2O)CC1', 'RLU', 0.49),
  ('C[C@]12CCC(=O)C=C1CC[C@@H]1[C@@H]2[C@@H](O)C[C@@]2(C)[C@H]1CC[C@]2(O)C(=O)CO', 'RLU', 0.45);

P. C[C@H]1[C@H]2[C@H]3CC[C@@H]4[C@@]5(C)CC[C@H](O[C@@H]6O[C@H](CO)[C@@H](O)[C@H](O)[C@H]6O)C(C)(C)[C@@H]5CC[C@@]4(C)[C@]3(C)CC[C@@]2(CO)CC[C@]1(C)O
Q. C=CC(C)(O)CC/C=C(\C)CC/C=C(\C)CO[C@@H]1O[C@H](CO)[C@@H](O)[C@H](O)[C@H]1O (some centres not stated)
Just tell me: smaller RLU value, P or Q ? Use the label to indicate which entry you chose.
Q
(Q: 0.26, P: 0.47)
